Test system Motilin receptor (Homo sapiens, UniProt O43193), AC50 listed for each of the compounds. Further: assay procedure not described here.

O=C(O)c1cn(C2CC2)c2cc(N3CCNCC3)c(F)cc2c1=O : > 10 µM
CCCCCCCCCCCCCCCCCCCCCC(=O)Nc1ccn([C@@H]2O[C@H](CO)[C@@H](O)[C@@H]2O)c(=O)n1 : > 30 µM
Nc1ccc(S(=O)(=O)Nc2nccs2)cc1 : > 10 µM
CCCC(CCC)C(=O)O : > 10 µM

q: Determine reported AC50 for CNCc1ccc(-c2[nH]c3cc(F)cc4c3c2CCNC4=O)cc1 ; test system: Motilin receptor (Homo sapiens, UniProt O43193). Further: assay procedure not described here.
Sequence (O43193 whole entry): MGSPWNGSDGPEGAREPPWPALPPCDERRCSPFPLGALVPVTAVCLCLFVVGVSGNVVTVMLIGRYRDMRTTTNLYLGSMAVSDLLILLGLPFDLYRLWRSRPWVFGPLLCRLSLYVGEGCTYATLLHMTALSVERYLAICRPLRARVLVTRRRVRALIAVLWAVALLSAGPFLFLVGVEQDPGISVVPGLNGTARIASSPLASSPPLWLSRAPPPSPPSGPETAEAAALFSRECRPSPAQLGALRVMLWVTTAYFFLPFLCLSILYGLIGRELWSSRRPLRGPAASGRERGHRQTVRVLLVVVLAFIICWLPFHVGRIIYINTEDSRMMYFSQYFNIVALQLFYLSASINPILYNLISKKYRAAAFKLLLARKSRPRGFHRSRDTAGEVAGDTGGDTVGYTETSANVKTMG
a: > 30 µM

q: Determine reported AC50 for CN1C[C@H](C(=O)N[C@]2(C)O[C@@]3(O)[C@@H]4CCCN4C(=O)[C@H](Cc4ccccc4)N3C2=O)C=C2c3cccc4[nH]cc(c34)C[C@H]21 ; test system: Motilin receptor (Homo sapiens, UniProt O43193). Further: assay procedure not described here.
a: > 30 µM

q: Determine reported AC50 for C[C@H](Cc1ccc(O)c(O)c1)[C@@H](C)Cc1ccc(O)c(O)c1 ; test system: Motilin receptor (Homo sapiens, UniProt O43193). Further: assay procedure not described here.
a: > 10 µM

FYI, the data here is from ChEMBL document CHEMBL5291721.
